Overview of recorded gcPBM binding intensity (ln) for various sequences
Tested on: PfAP2-I AP2 domain 3 (GST-tagged)
TEST_METHOD_NOTES: gcPBM binding intensity (ln(normalized median fluorescence intensity)); higher = stronger DNA binding
Whole data set: some 25,000 sequences, median “ln(normalized median fluorescence intensity)” near 7.9, cut for the highest 2% near 11. The list comes from a sample in which the highest values are over-represented; it also holds close analogues and randomly drawn sequences.
Number only, no unit.

# SEQUENCE_CONTENT, gcPBM binding intensity (ln)
rows = [
    ("TTATTTATTTATATAGTGCAATAAACACATAAATAG", 10.8),
    ("TATTAAAAGTAAAAAACACACATGGATATATACATA [CACACA_site3959]", 7.67),
    ("TGAATATTTCTATATACACACATATAAATATAAATA [CACACA_site7593]", 7.55),
    ("TCCATATGCAAACTGGTGCACAAGTAGCTTTTATAT", 11.2),
    ("TTTTTCCTATTTTTAGTGCACATATAAATAAATAAA [GTGCAC_site9821]", 11.6),
]

Consider the sequence shown here: ATATCATTTTCCTGCACACATAAATTTATATAATAT [CACACA_site1048] What is its recorded gcPBM binding intensity (ln)?
9.45

Consider the sequence shown here: TATTTTTCCATAAAAATTTATATAGAAACAAATAAT [GTGCAC_negctrl_site103] What is its recorded gcPBM binding intensity (ln)?
7.75

Consider the sequence shown here: GCTTCTTAATATCATACACACATAGATATATTTATA [CACACA_site5676] What is its recorded gcPBM binding intensity (ln)?
8.11

Consider the sequence shown here: TTTCACTACACAAATACACACAAAAATATATGTGCA [CACACA_site2632] What is its recorded gcPBM binding intensity (ln)?
7.91

Consider the sequence shown here: ACATATAAATATTGTGTGCACACACATAATATATAT What is its recorded gcPBM binding intensity (ln)?
10.2

====

Tested on: PfAP2-I AP2 domain 3 (GST-tagged)
TEST_METHOD_NOTES: gcPBM binding intensity (ln(normalized median fluorescence intensity)); higher = stronger DNA binding
The full ranking holds about 25,000 sequences; the median of “ln(normalized median fluorescence intensity)” is about 7.9, and the highest 2% start at about 11. Many of the other results were omitted from the sample, so the highest values are more common in it than they were.
REPORTED_METRIC: gcPBM binding intensity (ln)
Number only, no unit.

# SEQUENCE_CONTENT, TEST_SYSTEM, gcPBM binding intensity (ln)
data = [
    ("TTTTTAATATATTAGGTGCACAATAATACACTTTAT", "PfAP2-I AP2 domain 3 (GST-tagged)", 11.5),
]

Which measured gcPBM binding intensity (ln) belongs to TTTAATTTATATTTTGTGCACATCTTATTATATATA [GTGCAC_site9630] , tested on PfAP2-I AP2 domain 3 (GST-tagged)?
10.5

Which measured gcPBM binding intensity (ln) belongs to TGCACAAAATTATGCACACACCTAAAATTAATTTTT [CACACA_site5596] , tested on PfAP2-I AP2 domain 3 (GST-tagged)?
9.98

Which measured gcPBM binding intensity (ln) belongs to TTTTTTTTTTGTAATTGTACTTTTTTAATACTTCTA [XGTACX_site4195] , tested on PfAP2-I AP2 domain 3 (GST-tagged)?
7.74

Which measured gcPBM binding intensity (ln) belongs to GCACAAATATATATATATATATATATATATATATAT [GTGCAC_negctrl_site661] , tested on PfAP2-I AP2 domain 3 (GST-tagged)?
9.07

Which measured gcPBM binding intensity (ln) belongs to ATTCAATATATATACACACACACTTTTAATAATTAA [CACACA_site3770] , tested on PfAP2-I AP2 domain 3 (GST-tagged)?
8.1

Which measured gcPBM binding intensity (ln) belongs to AAAAAATTAACGAGTGCACACATATTTAGATAAAAT [CACACA_site8958] , tested on PfAP2-I AP2 domain 3 (GST-tagged)?
9.86

Which measured gcPBM binding intensity (ln) belongs to TTCATTCAAATTAACGTGCACATTATTAGTAAAAAC , tested on PfAP2-I AP2 domain 3 (GST-tagged)?
11.1
